Data origin, for the record: the supplement of paper PMC12338614

B1: library; numbered along this chain (parent)
chain: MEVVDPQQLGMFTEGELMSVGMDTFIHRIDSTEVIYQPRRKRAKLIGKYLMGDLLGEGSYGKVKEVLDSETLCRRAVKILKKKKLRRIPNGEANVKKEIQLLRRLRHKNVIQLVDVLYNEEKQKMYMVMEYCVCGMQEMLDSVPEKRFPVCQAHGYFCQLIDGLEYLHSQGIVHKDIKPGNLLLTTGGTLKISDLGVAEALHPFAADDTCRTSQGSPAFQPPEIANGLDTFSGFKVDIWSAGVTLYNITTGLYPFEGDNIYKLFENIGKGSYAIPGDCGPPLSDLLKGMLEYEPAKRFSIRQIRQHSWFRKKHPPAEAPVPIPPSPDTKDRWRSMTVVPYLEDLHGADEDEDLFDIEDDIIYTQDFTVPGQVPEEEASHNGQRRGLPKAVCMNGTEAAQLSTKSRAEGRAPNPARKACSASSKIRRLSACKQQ

Variants of: B1
assay_protocol: STK11 functional score (HeLa growth suppression), rescaled enrichment; synonymous median = 1, nonsense median = 0 (normalised score)
settings: with HeLa; variant type: missense
Please provide measured STK11 functional score for the entries that follow.
Give bare numbers.

Consider the reported STK11 functional score for these variants:
# mutant_label, STK11 functional score
data = [
    ("A417R", 1.6),
    ("L117H", 1.05),
    ("S378L", 0.82),
    ("M125Q", 1.68),
]

Provide STK11 functional score values for the following items, in order.
1. V338T
2. S404T
3. L285D
4. V110S
5. I424K
6. S401P
7. S422E

Result:
1.6
1.23
-0.216
0.535
1.22
1.07
1.49

Provide STK11 functional score values for the following items, in order.
1. Q371F
2. K83E
3. D350W
4. N266A

Result:
1.12
1.48
1.6
1.45

Provide STK11 functional score values for the following items, in order.
1. K81I
2. F219Y
3. T328H
4. N181V
5. T209E
6. T244I
7. V236I

Result:
1.19
1.29
1.52
-0.181
1.17
0.627
1.24
